- system-name: neuronal nicotinic acetylcholine receptors (Rattus norvegicus, UniProt P09483+P12390)
- Construct: crude synaptic membrane preparations from whole rat brain; from tissue; host or cells: whole rat brain, crude synaptic membranes
- Sequence (P09483 31-630): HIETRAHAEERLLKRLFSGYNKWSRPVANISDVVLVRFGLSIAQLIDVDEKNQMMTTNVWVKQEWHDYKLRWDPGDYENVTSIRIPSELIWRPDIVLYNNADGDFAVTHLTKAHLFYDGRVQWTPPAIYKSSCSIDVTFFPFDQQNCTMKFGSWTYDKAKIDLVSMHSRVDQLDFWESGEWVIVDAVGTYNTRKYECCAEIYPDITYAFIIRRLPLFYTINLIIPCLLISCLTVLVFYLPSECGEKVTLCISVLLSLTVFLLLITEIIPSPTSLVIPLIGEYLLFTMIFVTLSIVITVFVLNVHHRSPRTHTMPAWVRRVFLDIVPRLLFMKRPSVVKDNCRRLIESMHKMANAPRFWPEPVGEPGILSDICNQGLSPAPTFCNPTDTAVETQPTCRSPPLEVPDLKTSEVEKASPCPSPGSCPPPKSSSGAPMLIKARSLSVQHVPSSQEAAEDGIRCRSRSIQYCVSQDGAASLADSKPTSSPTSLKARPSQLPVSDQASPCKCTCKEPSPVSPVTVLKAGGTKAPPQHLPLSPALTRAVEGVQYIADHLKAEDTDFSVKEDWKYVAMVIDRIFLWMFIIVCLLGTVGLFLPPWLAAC
- Sequence (P12390 25-500): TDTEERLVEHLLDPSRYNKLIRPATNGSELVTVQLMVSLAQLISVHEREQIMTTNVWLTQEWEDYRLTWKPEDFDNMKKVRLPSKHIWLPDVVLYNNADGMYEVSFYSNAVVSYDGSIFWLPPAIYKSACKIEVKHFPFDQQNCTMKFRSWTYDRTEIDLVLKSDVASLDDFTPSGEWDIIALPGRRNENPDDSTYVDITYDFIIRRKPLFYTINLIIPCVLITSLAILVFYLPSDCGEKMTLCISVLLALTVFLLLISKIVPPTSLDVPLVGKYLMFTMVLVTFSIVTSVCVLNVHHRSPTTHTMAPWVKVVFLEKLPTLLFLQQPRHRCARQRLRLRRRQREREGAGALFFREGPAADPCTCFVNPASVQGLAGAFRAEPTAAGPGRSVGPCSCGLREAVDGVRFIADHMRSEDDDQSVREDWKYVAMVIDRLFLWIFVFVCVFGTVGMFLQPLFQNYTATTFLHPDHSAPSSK
- protocol-summary: [3H]-cytisine binding to neuronal nicotinic acetylcholine receptors, crude synaptic membranes from whole rat brain
Counter-ions that a name gives are not always drawn.
property-label: Ki (nM)
The response must be a number in nM with no trailing unit.

Worked examples follow.
Item: c1cncc(N2C[C@H]3C[C@@H]2CN3)c1 [Example 24, 4-methylbenzenesulfonate] | Ki: 0.012

Item: Clc1cc(N2C[C@H]3C[C@@H]2CN3)cnc1Cl [Example 48, 4-methylbenzenesulfonate] | Ki: 0.01

Item: Clc1ccc(N2CC3CC2CCN3)cn1 (centres unmarked) [Example 49, bis(4-methylbenzenesulfonate)] | Ki: 2.7

Item: Cc1ccc(N2C[C@@H]3C[C@H]2CN3)cn1 [Example 23, 4-methylbenzenesulfonate] | Ki: 1.6

Item: O=[N+]([O-])c1ccc(N2CC3CCC(C2)N3)cn1 [Example 10, dihydrochloride] | Ki: 37

Item: COc1ccc(N2C[C@H]3C[C@@H]2CN3)cn1 [Example 46, 4-methylbenzenesulfonate] | Ki: 0.25

***
Item: Oc1cncc(N2C[C@H]3C[C@@H]2CN3)c1 [Example 39, 4-methylbenzenesulfonate] | Ki: 0.04

Item: Cc1cc(N2C[C@H]3C[C@@H]2CN3)cnc1Cl [Example 47, 4-methylbenzenesulfonate] | Ki: 0.009
